Measured IC50 values are reported for all entries that follow.
- System: HPAF-II
- ASSAY_OVERVIEW: Antitumor activity against human HPAF-II cells measured after 72 hrs
- Type: functional, cell-based
VALUE_TYPE: IC50 (nM)

>>> recorded_number("C=C(C)[C@@H]1CC[C@]2(C(=O)NCCCN(C)C)CC[C@]3(C)[C@H](CC[C@@H]4[C@@]5(C)CC[C@H](O)C(C)(C)[C@@H]5CC[C@]43C)[C@@H]12")
90
>>> recorded_number("C=C(C)[C@@H]1CC[C@]2(C(=O)N[C@H]3CCN(C)C3)CC[C@]3(C)[C@H](CC[C@@H]4[C@@]5(C)CC[C@H](O)C(C)(C)[C@@H]5CC[C@]43C)[C@@H]12")
210
>>> recorded_number("C=C(C)[C@@H]1CC[C@]2(C(=O)NC[C@H]3CCN(C)C3)CC[C@]3(C)[C@H](CC[C@@H]4[C@@]5(C)CC[C@H](O)C(C)(C)[C@@H]5CC[C@]43C)[C@@H]12")
360
>>> recorded_number("C=C(C)[C@@H]1CC[C@]2(C(=O)NC[C@@H]3CCN(C)C3)CC[C@]3(C)[C@H](CC[C@@H]4[C@@]5(C)CC[C@H](O)C(C)(C)[C@@H]5CC[C@]43C)[C@@H]12")
320
>>> recorded_number("C=C(C)[C@@H]1CC[C@]2(C(=O)NCCN(C)CCN(C)C)CC[C@]3(C)[C@H](CC[C@@H]4[C@@]5(C)CC[C@H](O)C(C)(C)[C@@H]5CC[C@]43C)[C@@H]12")
380

* * *

- Tested on: HPAF-II
- ASSAY_OVERVIEW: Antitumor activity against human HPAF-II cells measured after 72 hrs
- Format: functional, cell-based
Measured IC50 values are reported for all entries that follow.
VALUE_TYPE: IC50 (nM)

>>> recorded_number("C=C(C)[C@@H]1CC[C@]2(C(=O)NCCOCCN(C)C)CC[C@]3(C)[C@H](CC[C@@H]4[C@@]5(C)CC[C@H](O)C(C)(C)[C@@H]5CC[C@]43C)[C@@H]12")
320
>>> recorded_number("C=C(C)[C@@H]1CC[C@]2(C(=O)NCc3cncs3)CC[C@]3(C)[C@H](CC[C@@H]4[C@@]5(C)CC[C@H](O)C(C)(C)[C@@H]5CC[C@]43C)[C@@H]12")
9300
>>> recorded_number("C=C(C)[C@@H]1CC[C@]2(C(=O)N[C@@H]3CCN(C)C3)CC[C@]3(C)[C@H](CC[C@@H]4[C@@]5(C)CC[C@H](O)C(C)(C)[C@@H]5CC[C@]43C)[C@@H]12")
380

* * *

- ASSAY_OVERVIEW: Tmax in ICR mouse at 10 mg/kg, po
- Format: ADME, organism-based
- CONDITION_SET: in vivo
VALUE_TYPE: Tmax (h)

>>> recorded_number("C=C(C)[C@@H]1CC[C@]2(C(=O)NCCCN(C)C)CC[C@]3(C)[C@H](CC[C@@H]4[C@@]5(C)CC[C@H](O)C(C)(C)[C@@H]5CC[C@]43C)[C@@H]12")
2

* * *

- ASSAY_OVERVIEW: MRT (infinity) in ICR mouse at 10 mg/kg, po
- Assay type: ADME, organism-based
- CONDITION_SET: in vivo
VALUE_TYPE: MRT inf (h)

>>> recorded_number("C=C(C)[C@@H]1CC[C@]2(C(=O)NCCCN(C)C)CC[C@]3(C)[C@H](CC[C@@H]4[C@@]5(C)CC[C@H](O)C(C)(C)[C@@H]5CC[C@]43C)[C@@H]12")
16.6
